Just for reference, paper PMC3838380 is where these values come from.

Target: YfiNGGDEF (Pseudomonas aeruginosa, UniProt Q9I4L5)
Construct: gene tpbB
Sequence (Q9I4L5 232-435): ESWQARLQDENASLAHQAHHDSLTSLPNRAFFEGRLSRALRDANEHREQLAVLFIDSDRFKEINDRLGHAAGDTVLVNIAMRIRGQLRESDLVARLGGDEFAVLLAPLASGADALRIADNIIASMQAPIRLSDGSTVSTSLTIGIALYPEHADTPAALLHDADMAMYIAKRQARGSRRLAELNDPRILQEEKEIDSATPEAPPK
Experiment: isothermal titration calorimetry
Format: binding
REPORTED_PROPERTY: Kd (nM)

>>> result("Nc1nc2c(ncn2[C@@H]2O[C@H](COP(=O)(O)OP(=O)(O)OP(=O)(O)O)[C@@H](O)[C@H]2O)c(=O)[nH]1")
67
